- assay_summary: acute oral toxicity in rats
- Type: in vivo, rat (Sprague-Dawley)
- assay_context: rat, in vivo, 14 days

[
  {
    "smiles_code": "CC(=O)Oc1ccccc1C(=O)O",
    "LD50 at 336 h (mg/kg)": 1430
  }
]
